Hey, just so you know, these numbers are from paper PMC10247784.

measured on: human TAS2R1 (Homo sapiens, UniProt Q9NYW7)
Construct: expressed in transfected cells; host or cells: HEK293T-Gα16gust44
Sequence (Q9NYW7 whole entry): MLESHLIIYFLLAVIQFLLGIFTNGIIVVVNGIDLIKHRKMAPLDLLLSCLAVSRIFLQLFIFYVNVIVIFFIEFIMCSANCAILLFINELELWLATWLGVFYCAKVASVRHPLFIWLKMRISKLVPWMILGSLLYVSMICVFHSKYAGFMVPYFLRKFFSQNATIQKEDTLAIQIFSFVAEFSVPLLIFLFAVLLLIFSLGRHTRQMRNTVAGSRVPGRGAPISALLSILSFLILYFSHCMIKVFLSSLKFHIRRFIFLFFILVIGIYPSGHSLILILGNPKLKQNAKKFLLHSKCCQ
experimental details: Calcium imaging assay (FLIPR), HEK293T-Gα16gust44 cells transfected with human TAS2R1
Format: cell-based
condition context: Time 215.547 s
Give RLU for every item shown.
One number for each entry, in RLU.

Record excerpt, results attached:
compound | value unit | RLU
C[C@H](CCC(=O)NCC(=O)O)[C@H]1CC[C@H]2[C@@H]3[C@H](O)C[C@@H]4C[C@H](O)CC[C@]4(C)[C@H]3C[C@H](O)[C@]12C [Glycocholic Acid, glycocholic acid] | RLU | 144.843
C[C@H](CCC(=O)NCCS(=O)(=O)O)[C@H]1CC[C@H]2[C@@H]3CC[C@@H]4C[C@H](O)CC[C@]4(C)[C@H]3CC[C@]12C [Taurolithocholic Acid, taurolithocholic acid] | RLU | -81.387
C[C@H](CCC(=O)O)[C@H]1CC[C@H]2[C@@H]3CC[C@@H]4C[C@H](O)CC[C@]4(C)[C@H]3C[C@H](O)[C@]12C [Deoxycholic Acid, deoxycholic acid] | RLU | 197.659

Let's switch to this compound now.
Form field: reported RLU of C[C@H](CCC(=O)NCCS(=O)(=O)O)[C@H]1CC[C@H]2[C@@H]3[C@H](O)C[C@@H]4C[C@H](O)CC[C@]4(C)[C@H]3C[C@H](O)[C@]12C [Taurocholic Acid, taurocholic acid] 35.7219
